Cited source for all entries: paper PMC5305809

Each entry below lists one item and its recorded kcat value.
target: HDAC8 (Homo sapiens, UniProt Q9BY41); test: HDAC8 kinetics assay on H3K9 acyl peptides; format: biochemical; conditions: recombinant HDAC8 from E. coli, 1 μM, 37 °C, 1 hr, pH 8, duplicate, ± S.D.; SD
Sequence (Q9BY41 whole entry): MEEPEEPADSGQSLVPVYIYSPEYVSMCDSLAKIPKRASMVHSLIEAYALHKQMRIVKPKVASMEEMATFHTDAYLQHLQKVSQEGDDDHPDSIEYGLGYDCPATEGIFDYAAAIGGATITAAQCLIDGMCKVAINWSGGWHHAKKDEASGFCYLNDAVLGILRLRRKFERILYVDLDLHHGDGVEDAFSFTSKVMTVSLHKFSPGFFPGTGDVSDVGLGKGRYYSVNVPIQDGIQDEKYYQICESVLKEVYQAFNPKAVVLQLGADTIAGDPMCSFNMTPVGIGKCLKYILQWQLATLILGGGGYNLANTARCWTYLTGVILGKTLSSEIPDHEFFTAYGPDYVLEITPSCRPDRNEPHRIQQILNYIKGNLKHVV
Endpoint: kcat

[[record]]
primary_sequence = "KQTARKSTGGWW [Octanoyl H3K9]"
endpoint = "kcat"
result = "0.0202 ± 0.0005 S^−1"

[[record]]
primary_sequence = "KQTARKSTGGWW [Myristoyl H3K9]"
endpoint = "kcat"
result = "0.0019 ± 0.0003 S^−1"

[[record]]
primary_sequence = "KQTARKSTGGWW [Dodecanoyl H3K9]"
endpoint = "kcat"
result = "0.0123 ± 0.0013 S^−1"

[[record]]
primary_sequence = "KQTARKSTGGWW [Palmitoyl H3K9]"
endpoint = "kcat"
result = "0.0005 ± 0.00007 S^−1"

